# Measured Target: Acetylcholinesterase (Homo sapiens, UniProt P22303)
# Sequence (P22303 whole entry): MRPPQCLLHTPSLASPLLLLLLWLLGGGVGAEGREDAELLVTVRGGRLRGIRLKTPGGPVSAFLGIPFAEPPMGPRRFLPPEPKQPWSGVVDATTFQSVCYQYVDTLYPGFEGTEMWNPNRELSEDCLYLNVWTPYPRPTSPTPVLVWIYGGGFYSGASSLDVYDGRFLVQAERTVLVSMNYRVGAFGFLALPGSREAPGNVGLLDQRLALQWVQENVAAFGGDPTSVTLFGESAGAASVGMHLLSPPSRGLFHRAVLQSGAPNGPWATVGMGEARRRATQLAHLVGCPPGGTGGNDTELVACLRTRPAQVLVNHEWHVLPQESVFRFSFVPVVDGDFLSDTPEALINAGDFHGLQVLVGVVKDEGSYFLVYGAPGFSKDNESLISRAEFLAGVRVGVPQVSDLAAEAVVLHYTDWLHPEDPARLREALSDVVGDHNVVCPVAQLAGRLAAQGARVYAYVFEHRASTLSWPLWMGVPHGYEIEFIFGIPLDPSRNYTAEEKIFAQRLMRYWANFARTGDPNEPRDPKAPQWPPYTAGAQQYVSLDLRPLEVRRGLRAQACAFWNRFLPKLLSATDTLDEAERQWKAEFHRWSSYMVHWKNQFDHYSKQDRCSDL
Recorded IC50 values for a group of molecules are listed next.

# Molecule, IC50 (nM)
rows = [
    ("COc1cc2cc(C(=O)C3CC[N+](C)(Cc4ccccc4)CCC3O)sc2cc1OC (stereo not given)", 43),
    ("COc1cc2cc(C(=O)C3CCC[N+](C)(Cc4ccccc4)CC3)sc2cc1OC (stereo not given)", 8),
    ("C[N+]1(Cc2ccccc2)CCC(CCC(=O)c2ccc3c(c2)OCO3)CC1 (stereo not given)", 41.5),
    ("COC(=O)C[N+]1(C)CCC(CCC(=O)C2Cc3cc(OC)c(OC)cc3S2)CC1 (stereo not given)", 54),
    ("COc1cc2cc(C(=O)C3CC[N+](C)(Cc4ccccc4)CCC3OC)sc2cc1OC (stereo not given)", 120),
    ("COc1cc2c(cc1OC)SC(C(=O)CC(O)C1CC[N+](C)(Cc3ccccc3)CC1)C2 (stereo not given)", 190),
    ("COc1cc2c(cc1OC)C(=O)C(C1CC[N+](C)(Cc3ccccc3)CC1)=C2 (stereo not given)", 250),
    ("COc1cc2c(cc1OC)SC(C(=O)CCc1cc[n+](CC3CC3)cc1)C2 (stereo not given)", 110),
    ("COCC[n+]1ccc(CCC(=O)C2Cc3cc(OC)c(OC)cc3S2)cc1 (stereo not given)", 30),
    ("COc1cc2cc(C3CC[N+](C)(Cc4ccccc4)CC3O)sc2cc1OC (stereo not given)", 19600),
]

----------
Quick record: Ki, Acetylcholinesterase (Homo sapiens).
Measurement Kind: Ki

# Molecule, Measurement Kind, Recorded Result
rows = [
    ("COCC[N+]1(C)CCCC(C(=O)c2cc3cc(OC)c(OC)cc3s2)CC1 (stereo unspecified)", "Ki", "52.5 nM"),
    ("COc1cc2c(cc1OC)C(=O)C(C1CC[N+](C)(Cc3ccccc3)CC1)=C2 (stereo unspecified)", "Ki", "251 nM"),
    ("CC[n+]1ccc(CCC(=O)C2Cc3cc(OC)c(OC)cc3S2)cc1 (stereo unspecified)", "Ki", "282 nM"),
    ("COc1cc2cc(C(=O)C3CC[N+](C)(Cc4ccccc4)CCC3O)sc2cc1OC (stereo unspecified)", "Ki", "42.7 nM"),
    ("O=C1CCc2cc3c(CCC4CCN(Cc5ccccc5)CC4)noc3cc2N1", "Ki", "0.575 nM"),
    ("Cc1cc(C(=O)CCC2CC[N+](C)(Cc3ccccc3)CC2)nn1-c1ccccc1 (stereo unspecified)", "Ki", "21.9 nM"),
    ("C=CC[n+]1ccc(CCC(=O)C2Cc3cc(OC)c(OC)cc3S2)cc1 (stereo unspecified)", "Ki", "219 nM"),
    ("C[N+]1(Cc2ccccc2)CCC(CCC(=O)c2ccc3c(c2)CCCCO3)CC1 (stereo unspecified)", "Ki", "138 nM"),
    ("COc1cc2c(cc1OC)SC(C(=O)CCc1cc[n+](CC3CC3)cc1)C2 (stereo unspecified)", "Ki", "110 nM"),
    ("CCC[n+]1ccc(CCC(=O)C2Cc3cc(OC)c(OC)cc3S2)cc1 (stereo unspecified)", "Ki", "2570 nM"),
    ("O=C(CCc1cc[n+](Cc2ccccc2)cc1)c1ccc2c(c1)OCO2", "Ki", "240 nM"),
    ("COc1cc2c(cc1OC)SC(C(=O)CCc1cc[n+](CC3CCC3)cc1)C2 (stereo unspecified)", "Ki", "39.8 nM"),
    ("COc1cc2c(cc1OC)SC(C(=O)CC(O)C1CC[N+](C)(Cc3ccccc3)CC1)C2 (stereo unspecified)", "Ki", "191 nM"),
    ("O=C1Cc2cc3onc(CCC4CCN(Cc5ccccc5)CC4)c3cc2N1", "Ki", "0.955 nM"),
    ("O=S(=O)(Nc1ccc2c(CCC3CCN(Cc4ccccc4)CC3)noc2c1)c1ccccc1", "Ki", "14.1 nM"),
    ("CC(=O)Nc1ccc2c(CCC3CCN(Cc4ccccc4)CC3)noc2c1", "Ki", "2.82 nM"),
    ("COc1cc2c(cc1OC)SC(C(=O)CCc1cc[n+](Cc3ccsc3)cc1)C2 (stereo unspecified)", "Ki", "6.03 nM"),
    ("O=C1Cc2cc3c(CCC4CCN(Cc5ccccc5)CC4)noc3cc2N1", "Ki", "0.331 nM"),
    ("Brc1ccc2c(CCC3CCN(Cc4ccccc4)CC3)noc2c1", "Ki", "50.1 nM"),
    ("C[N+]1(Cc2ccccc2)CCC(CCC(=O)c2ccc3c(c2)OCO3)CC1 (stereo unspecified)", "Ki", "41.7 nM"),
    ("C[N+]1(Cc2ccccc2)CCC(CCC(=O)c2ccc3c(c2)OCCO3)CC1 (stereo unspecified)", "Ki", "100 nM"),
    ("CCOCC[n+]1ccc(CCC(=O)C2Cc3cc(OC)c(OC)cc3S2)cc1 (stereo unspecified)", "Ki", "7.08 nM"),
    ("COc1cc2cc(C(=O)C3CC[N+](C)(Cc4ccccc4)CCC3OC)sc2cc1OC (stereo unspecified)", "Ki", "120 nM"),
    ("COc1cc2c(cc1OC)SC(C(=O)CCc1cc[n+](Cc3ccc(F)cc3)cc1)C2 (stereo unspecified)", "Ki", "2.57 nM"),
    ("COc1cc2cc(C3=CC[N+](C)(Cc4ccccc4)CC3)sc2cc1OC (stereo unspecified)", "Ki", "2690 nM"),
    ("O=C1Cc2c(ccc3c(CCC4CCN(Cc5ccccc5)CC4)noc23)N1", "Ki", "3.63 nM"),
    ("CN1C(=O)Cc2cc3onc(CCC4CCN(Cc5ccccc5)CC4)c3cc21", "Ki", "0.479 nM"),
    ("COc1cc2cc(C(=O)CCC3CC[N+](C)(Cc4ccccc4)CC3)n(C)c2cc1OC (stereo unspecified)", "Ki", "120 nM"),
    ("COc1cc2cc(C(=O)C3CCC[N+](C)(Cc4ccc([N+](=O)[O-])o4)CC3)sc2cc1OC (stereo unspecified)", "Ki", "32.4 nM"),
    ("COc1cc2cc(C(=O)CC3CCCC[N+](C)(Cc4ccccc4)CC3)sc2cc1OC (stereo unspecified)", "Ki", "110 nM"),
    ("Cc1ccc2onc(CCC3CCN(Cc4ccccc4)CC3)c2c1", "Ki", "7.76 nM"),
    ("N#Cc1ccc2c(CCC3CCN(Cc4ccccc4)CC3)noc2c1", "Ki", "100 nM"),
    ("COc1cc2c(cc1OC)SC(C(=O)CC1C=CC[N+](C)(Cc3ccccc3)CC1)C2 (stereo unspecified)", "Ki", "759 nM"),
    ("COc1cc2cc(C(=O)C3CCC[N+](C)(CC#N)CC3)sc2cc1OC (stereo unspecified)", "Ki", "1000 nM"),
    ("COc1cc2c(cc1OC)SC(C(=O)CCc1cc[n+](Cc3coc([N+](=O)[O-])c3)cc1)C2 (stereo unspecified)", "Ki", "4.47 nM"),
    ("COc1cc2cc(C(=O)C3=CC[N+](C)(Cc4ccccc4)CC3)sc2cc1OC (stereo unspecified)", "Ki", "525 nM"),
    ("COC(=O)C[N+]1(C)CCC(CCC(=O)C2Cc3cc(OC)c(OC)cc3S2)CC1 (stereo unspecified)", "Ki", "53.7 nM"),
    ("COCC[n+]1ccc(CCC(=O)C2Cc3cc(OC)c(OC)cc3S2)cc1 (stereo unspecified)", "Ki", "30.2 nM"),
    ("COc1cc2c(cc1OC)SC(C(=O)CCc1cc[n+](C)cc1)C2 (stereo unspecified)", "Ki", "891 nM"),
    ("COc1cc2c(cc1OC)SC(CC1CC[N+](C)(Cc3ccccc3)CC1)C2 (stereo unspecified)", "Ki", "30200 nM"),
    ("COc1cc2cc(C(=O)C3CCC[N+](C)(CC(=O)OC(C)(C)C)CC3)sc2cc1OC (stereo unspecified)", "Ki", "79.4 nM"),
]
